- System: Canis familiaris
- assay.notes: Heart beat by the compound in open chest anesthetized dog, after iv administration at a dose of 5.0 mg/kg.
- Assay type: functional, Canis lupus familiaris
- Design: unit not given here
readout.type: HR
One number for each entry.

As a guide, the following entries are already answered.
compound: CN(Cc1ccc2ccccc2n1)CC(O)COc1ccc(NS(C)(=O)=O)cc1 (centres undefined)
readout.type: HR
observed.measurement: -18
--
compound: O=[N+]([O-])c1ccc(OCC(O)CN2CCN(c3ccccn3)CC2)cc1 (centres undefined)
readout.type: HR
observed.measurement: -33
--
compound: CC(C)NCC(O)c1ccc(NS(C)(=O)=O)cc1 (racemic)
readout.type: HR
observed.measurement: -28

Now turn to the next compound.
Prompt line: Give a short answer stating reported HR for CN(CCCOc1ccc(NS(C)(=O)=O)cc1)Cc1ccc2ccccc2n1 .
Response line: -23

---

- Species: Canis familiaris
- assay.notes: Maximum rate of rise of the upstroke of transmembrane potential, in canine Purkinje Fibers at a concentration of 0.3 uM at 300 ms (simulating tachycardia)
- Assay type: functional
- Parameters: unit not given here
- condition.info: Canis lupus familiaris, Purkinje fiber
I'd be grateful if you could share measured Vmax for these entries.
Answers are plain numbers.

Past entries and their recorded results:
compound: CN(Cc1ccc2cc(F)ccc2n1)CC(O)COc1ccc(NS(C)(=O)=O)cc1 (stereo not given)
observed.measurement: 3

compound: CN(Cc1ccc2ccccc2n1)C[C@H](O)COc1ccc(NS(C)(=O)=O)cc1
observed.measurement: -4

compound: CN(Cc1ccc2cc(NS(C)(=O)=O)ccc2n1)CC(O)COc1ccc(NS(C)(=O)=O)cc1 (stereo not given)
observed.measurement: -2

compound: CN(Cc1ccc2ccccc2n1)CC(O)COc1ccc(NS(C)(=O)=O)cc1 (stereo not given)
observed.measurement: 5

Consider the record given below.
Prompt line: Look up and report measured Vmax for this entry: CN(Cc1ccc2ccccc2n1)C[C@@H](O)COc1ccc(NS(C)(=O)=O)cc1
Response line: -4

---

- Organism: Canis familiaris
- assay.notes: repolarization to reach -60mV, in canine Purkinje Fibers at a concentration of 3.0 uM at 1000 ms (simulating normal heart rate)
- Format: functional, Canis lupus familiaris, Purkinje fiber
Hi there, I'd appreciate the recorded APD for every entry that follows.
One number for each entry, in %.

Example entries and their recorded answers appear below.
compound: CN(Cc1cc2ccccc2o1)CC(O)COc1ccc(NS(C)(=O)=O)cc1 (stereo not given)
readout.type: APD
measure.unit: %
observed.measurement: 47
//
compound: CS(=O)(=O)Nc1ccc(OCC(O)CN2CCN(c3ncccn3)CC2)cc1 (stereo not given)
readout.type: APD
measure.unit: %
observed.measurement: 23
//
compound: CN(Cc1cnc2ccccc2n1)CC(O)COc1ccc(NS(C)(=O)=O)cc1 (stereo not given)
readout.type: APD
measure.unit: %
observed.measurement: 26
//
compound: O=[N+]([O-])c1ccc(OCC(O)CN2CCN(c3ccccn3)CC2)cc1 (stereo not given)
readout.type: APD
measure.unit: %
observed.measurement: 29

Let us examine a further case.
Prompt line: For the compound CN(Cc1ccc2ccccc2n1)CC(O)COc1ccc(C#N)cc1 (stereo not given) , give its reported APD.
Response line: 41

---

Give APD for every item shown.
- Species on record: Canis familiaris
- assay.notes: Repolarization to reach -60mV, in canine Purkinje Fibers at a concentration of 0.3 uM at 300 ms (simulating tachycardia)
- Assay type: functional, Canis lupus familiaris, Purkinje fiber
In your response, put the unit directly after the numeric value.

Provide each entry's APD from the list below.
1. CN(Cc1ccc2ccccc2n1)C[C@H](O)COc1ccc(NS(C)(=O)=O)cc1
2. CN(Cc1ccc2ccccc2n1)C[C@@H](O)COc1ccc(NS(C)(=O)=O)cc1
3. CN(Cc1ccc2ccccc2n1)CC(O)COc1ccc(NS(C)(=O)=O)cc1 (stereo not given)
4. CN(Cc1ccc2cc(NS(C)(=O)=O)ccc2n1)CC(O)COc1ccc(NS(C)(=O)=O)cc1 (stereo not given)
5. CN(Cc1ccc2cc(F)ccc2n1)CC(O)COc1ccc(NS(C)(=O)=O)cc1 (stereo not given)

Response line:
1. 13%
2. 12%
3. 8%
4. 13%
5. 12%
